Kindly supply the reported pIC50 values for the records listed here.
Kindly note that pIC50 refers to -log10 of the concentration in mol/L and answer with the value alone.

Ask: With Serine/threonine-protein kinase mTOR (Homo sapiens) as the test system, provide measured pIC50 for this compound: `C/C(=N\NC(=O)c1cccc(I)c1)c1ccncc1`
Result: 5.93

Ask: With Serine/threonine-protein kinase mTOR (Homo sapiens) as the test system, provide measured pIC50 for this compound: `C/C(=N\NC(=O)c1cccc(Br)c1)c1ccc(C(=O)O)cc1`
Result: 6.16

Ask: With Serine/threonine-protein kinase mTOR (Homo sapiens) as the test system, provide measured pIC50 for this compound: `C/C(=N\NC(=O)c1cccc(Br)c1)c1ccc(C(=O)Nc2nc3ccccc3[nH]2)cc1`
Result: 6.52

Ask: With Serine/threonine-protein kinase mTOR (Homo sapiens) as the test system, provide measured pIC50 for this compound: `C/C(=N\NC(=O)c1ccc(C)c(Br)c1)c1ccc(N)cc1`
Result: 5.14

Ask: With Serine/threonine-protein kinase mTOR (Homo sapiens) as the test system, provide measured pIC50 for this compound: `C/C(=N\NC(=O)c1ccc(C)c(Br)c1)c1ccc(O)cc1`
Result: 5.70

Ask: With Serine/threonine-protein kinase mTOR (Homo sapiens) as the test system, provide measured pIC50 for this compound: `C/C(=N\NC(=O)c1cccc(Br)c1)c1ccc(N)cc1`
Result: 5.21

* * *

tested on: A549; assay: cells; conditions: Homo sapiens, A549, 24 h
Description: Antiproliferative activity against human A549 cells assessed as reduction in cell viability incubated for 24 hrs by MTT assay
Kindly supply the reported IC50 values for the records listed here.
Express it in µM; write the number only.

Ask: Annotate the compound `C/C(=N\NC(=O)c1ccc(C)c(I)c1)c1ccncc1` with its measured IC50.
Result: 11.3

Ask: Annotate the compound `C/C(=N\NC(=O)c1cccc(Br)c1)c1ccc(C(=O)Nc2nc3ccccc3[nH]2)cc1` with its measured IC50.
Result: 6.48

Ask: Annotate the compound `CN(Cc1ccccc1)C(=O)Nc1ccc(C(F)(F)F)cc1` with its measured IC50.
Result: 28.8

Ask: Annotate the compound `C/C(=N\NC(=O)c1cccc(I)c1)c1ccc(C(=O)O)cc1` with its measured IC50.
Result: 8.91

Ask: Annotate the compound `C/C(=N\NC(=O)c1cccc(Br)c1)c1ccc(N)cc1` with its measured IC50.
Result: 13

Ask: Annotate the compound `O=C(NCc1ccc(O)cc1)Nc1ccc(C(F)(F)F)cc1` with its measured IC50.
Result: 36.7

Ask: Annotate the compound `O=C(NCc1ccc(O)cc1)Nc1cccc(F)c1` with its measured IC50.
Result: 22.3

* * *

system: A549; assay: cells; settings: Homo sapiens, A549, 24 h
READOUT_LABEL: pIC50
Kindly note that pIC50 refers to -log10 of the concentration in mol/L and answer with the value alone.

Ask: Annotate the compound `C/C(=N\NC(=O)c1ccc(C)c(I)c1)c1ccc(N)cc1` with its measured pIC50.
Result: 5.00

Ask: Annotate the compound `C/C(=N\NC(=O)c1ccc(C)c(I)c1)c1ccc(C(F)(F)F)cc1` with its measured pIC50.
Result: 5.02

Ask: Annotate the compound `Cc1ccc(C(=O)Nc2cc3ccccc3cn2)cc1Br` with its measured pIC50.
Result: 4.58

Ask: Annotate the compound `C/C(=N\NC(=O)c1ccc(C)c(Br)c1)c1ccc(O)cc1` with its measured pIC50.
Result: 5.00

Ask: Annotate the compound `O=C(NCc1cccc(Br)c1)Nc1ccc(C(F)(F)F)cc1` with its measured pIC50.
Result: 4.58

Ask: Annotate the compound `Cc1ccc(C(=O)NCCc2ccc(O)cc2)cc1Br` with its measured pIC50.
Result: 4.47

Ask: Annotate the compound `C/C(=N\NC(=O)c1cccc(I)c1)c1ccncc1` with its measured pIC50.
Result: 5.01

Ask: Annotate the compound `C/C(=N\NC(=O)c1cccc(I)c1)c1ccc(N)cc1` with its measured pIC50.
Result: 4.88

Ask: Annotate the compound `C/C(=N\NC(=O)c1cccc(Br)c1)c1ccc(C(=O)O)cc1` with its measured pIC50.
Result: 5.11

Ask: Annotate the compound `CO[C@H]1C[C@@H]2CC[C@@H](C)[C@@](O)(O2)C(=O)C(=O)N2CCCC[C@H]2C(=O)O[C@H]([C@H](C)C[C@@H]2CC[C@@H](O)[C@H](OC)C2)CC(=O)[C@H](C)/C=C(\C)[C@@H](O)[C@@H](OC)C(=O)[C@H](C)C[C@H](C)/C=C/C=C/C=C/1C` with its measured pIC50.
Result: 4.51

Ask: Annotate the compound `C/C(=N\NC(=O)c1cccc(Br)c1)c1cc(O)cc(O)c1` with its measured pIC50.
Result: 4.99
